Measured values drawn from paper PMC4366261 for this set.

# PROCEDURE DETAILS: Transport experiment across Caco-2 cell monolayer (Papp)
# Format: in vitro ADME, human
# RUN CONDITIONS: human, Caco-2, individual compound, 50 μmol/L, 90 min
MEASURE NAME: Papp B→A at 90 min, 50 μmol/L (×10⁻⁶ cm/s)
Answers are plain numbers, in ×10⁻⁶ cm/s.

• CCC(C)C(=O)O[C@@H]1[C@@H](O)[C@H](O)[C@@H](CO)O[C@H]1c1c(OC)cc(O)c2c(=O)cc(-c3ccc(O)cc3)oc12 (stereo partly shown) [2”-O-(2”‘-methylbutanoyl)isoswertisin] = 4.8
• O=c1cc(-c2ccc(O)c(O)c2)oc2c([C@@H]3O[C@H](CO)[C@@H](O)[C@H](O)[C@H]3O)c(O)cc(O)c12 [Orientin] = 1.14
• O=c1cc(-c2ccc(O)cc2)oc2c([C@@H]3O[C@H](CO)[C@@H](O)[C@H](O)[C@H]3O)c(O)cc(O)c12 [Vitexin] = 3.38
• O=c1cc(-c2ccc(O)cc2)oc2c([C@@H]3O[C@H](CO)[C@@H](O)[C@H](O)[C@H]3O[C@@H]3O[C@H](CO)[C@H](O)[C@H](O)[C@H]3O)c(O)cc(O)c12 [2”-O-β-L-galactopyranosylvitexin] = 4.68
• O=c1cc(-c2ccc(O)c(O)c2)oc2c([C@@H]3O[C@H](CO)[C@@H](O)[C@H](O)[C@H]3O[C@@H]3O[C@H](CO)[C@H](O)[C@H](O)[C@H]3O)c(O)cc(O)c12 [2”-O-β-L-galactopyranosylorientin] = 4.58
• COc1cc(O)c2c(=O)cc(-c3ccc(O)c(O)c3)oc2c1[C@@H]1O[C@H](CO)[C@@H](O)[C@H](O)[C@H]1O [Isoswertiajaponin] = 1.19

Consider now this further molecule.
Endpoint output: Papp B→A at 90 min, 50 μmol/L of COc1cc(O)c2c(=O)cc(-c3ccc(O)cc3)oc2c1[C@@H]1O[C@H](CO)[C@@H](O)[C@H](O)[C@H]1O [Isoswertisin] . Value?
0.94

----------
# Tested on: Caco-2 cell monolayer
# PROCEDURE DETAILS: Transport experiment across Caco-2 cell monolayer (Papp)
# Format: in vitro ADME, human
# RUN CONDITIONS: individual compound, 50 μmol/L, 90 min
Note to self: use T only for P ratio Papp AP→BL/Papp BL→AP readings below 0.7; a reading exactly at 0.7 still gets F.

See these solved cases before continuing.
- O=c1cc(-c2ccc(O)c(O)c2)oc2c([C@@H]3O[C@H](CO)[C@@H](O)[C@H](O)[C@H]3O)c(O)cc(O)c12 [Orientin]: T
- COc1cc(O)c2c(=O)cc(-c3ccc(O)cc3)oc2c1[C@@H]1O[C@H](CO)[C@@H](O)[C@H](O)[C@H]1O [Isoswertisin]: F
- COc1cc(O)c2c(=O)cc(-c3ccc(O)c(O)c3)oc2c1[C@@H]1O[C@H](CO)[C@@H](O)[C@H](O)[C@H]1O [Isoswertiajaponin]: F
- O=c1cc(-c2ccc(O)c(O)c2)oc2c([C@@H]3O[C@H](CO)[C@@H](O)[C@H](O)[C@H]3O[C@@H]3O[C@H](CO)[C@H](O)[C@H](O)[C@H]3O)c(O)cc(O)c12 [2”-O-β-L-galactopyranosylorientin]: T

Shift focus to the following entry.
Quick check: does O=c1cc(-c2ccc(O)cc2)oc2c([C@@H]3O[C@H](CO)[C@@H](O)[C@H](O)[C@H]3O)c(O)cc(O)c12 [Vitexin] have P ratio Papp AP→BL/Papp BL→AP under 0.7?
T
